Source of measurements: patent US20220002427A1

Target: T1, recombinant human BCMA Fc(kih) (human, UniProt Q02223 4-53, site-specifically biotinylated at the C-terminal avi-tag ; Biotin on the avi-tag at the C-terminus of the Fc knob chain (tag and Fc left out).)
T1 construct: Knobs-into-holes heterodimer carrying one BCMA ectodomain; also called huBCMA Fc(kih); huBCMA; not shown: human IgG1 hinge-Fc knob chain with C-terminal avi-tag, and the unfused Fc hole chain
T1 chain: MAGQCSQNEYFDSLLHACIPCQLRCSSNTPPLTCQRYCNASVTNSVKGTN
Measurement protocol: SPR (Biacore T200), IgG captured via anti-human Fab, BCMA Fc(kih) as analyte, 1:1 Langmuir fit

| Binder | koff (s⁻¹) |
| --- | --- |
| Mab 22 IgG (antibody, V domains shown, also called antibody 22; clone 22) VH: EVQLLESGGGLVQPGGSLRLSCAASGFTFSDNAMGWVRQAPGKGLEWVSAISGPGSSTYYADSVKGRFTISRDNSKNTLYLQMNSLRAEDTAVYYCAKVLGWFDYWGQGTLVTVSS VL: EIVLTQSPGTLSLSPGERATLSCRASQSVSSYYLAWYQQKPGQAPRLLISGAGSRATGIPDRFSGSGSGTDFTLTISRLEPEDFAVYYCQQYGYPPDFTFGQGTKVEIK | 5.15e-05 |
| Mab 33 IgG (antibody, V domains shown) VH: EVQLLESGGGLVQPGGSLRLSCAASGFTFYTNAMGWVRQAPGKGLEWVSAINRFGGSTYYADSVKGRFTISRDNSKNTLYLQMNSLRAEDTAVYYCAKVLGWFDYWGQGTLVTVSS VL: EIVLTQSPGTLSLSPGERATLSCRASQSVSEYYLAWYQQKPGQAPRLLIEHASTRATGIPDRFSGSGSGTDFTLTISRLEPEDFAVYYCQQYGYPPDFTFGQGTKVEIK | 3.55e-05 |
| Mab 21 IgG (antibody, V domains shown, also called antibody 21) VH: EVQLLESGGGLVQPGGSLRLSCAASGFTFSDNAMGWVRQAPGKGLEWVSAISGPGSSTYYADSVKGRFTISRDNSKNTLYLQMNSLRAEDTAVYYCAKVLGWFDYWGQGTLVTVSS VL: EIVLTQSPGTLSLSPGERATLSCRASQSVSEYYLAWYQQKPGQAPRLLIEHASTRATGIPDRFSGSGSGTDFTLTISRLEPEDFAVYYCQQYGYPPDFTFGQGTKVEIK | 4.39e-05 |
| Mab 27 IgG (antibody, V domains shown) VH: EVQLLESGGGLVQPGGSLRLSCAASGFTFSSAPMGWVRQAPGKGLEWVSAISYIGHTYYADSVKGRFTISRDNSKNTLYLQMNSLRAEDTAVYYCAKVLGWFDYWGQGTLVTVSS VL: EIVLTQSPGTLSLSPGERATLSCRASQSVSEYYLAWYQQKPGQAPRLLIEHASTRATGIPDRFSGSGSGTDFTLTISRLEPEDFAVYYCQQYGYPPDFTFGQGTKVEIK | 5.93e-05 |
| Mab 39 IgG (antibody, V domains shown) VH: EVQLLESGGGLVQPGGSLRLSCAASGFTFTQNAMGWVRQAPGKGLEWVSAISPTGFSTYYADSVKGRFTISRDNSKNTLYLQMNSLRAEDTAVYYCAKVLGWFDYWGQGTLVTVSS VL: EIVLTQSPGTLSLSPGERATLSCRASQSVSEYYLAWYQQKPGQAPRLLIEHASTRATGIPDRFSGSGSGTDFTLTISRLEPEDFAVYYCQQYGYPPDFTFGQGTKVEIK | 5.58e-05 |
| Mab 42 IgG (antibody, V domains shown, also called antibody 42; clone 42) VH: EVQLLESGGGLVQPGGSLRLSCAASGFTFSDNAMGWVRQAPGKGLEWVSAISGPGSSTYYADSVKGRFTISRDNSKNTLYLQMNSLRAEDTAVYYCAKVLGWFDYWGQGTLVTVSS VL: EIVLTQSPGTLSLSPGERATLSCRASQSVSDEYLSWYQQKPGQAPRLLIHSASTRATGIPDRFSGSGSGTDFTLAISRLEPEDFAVYYCQQYGYPPDFTFGQGTKVEIK | 0.000298 |
